- System: MS2 coat protein
- RUN DESCRIPTION: apparent KD of MS2 coat protein; designed switch direction (-1 OFF switch, 1 ON switch): -1; higher = weaker reporter binding
- COND: input ligand: FMN 200 uM
Think of 200 nM as a floor: if apparent KD of MS2 coat protein stands on it or above, it is 1; beneath it, -1.

Some solved entries appear below for comparison.
# ITEM SEQUENCE, CLASS ASSIGNMENT
rows = [
    ("GUGGGUCCUCACGGUGCUACAUGAGGAUCACCCAUGUGGAUUGAGGAUAUCGUAACCCGACGGGACGAGAAGGCAGUUUACUGU [Ex NG3 #99] (Eterna round: R96, puzzle: Exclusion NG 3)", -1),
    ("AAGUAGUGUGUGAGGAUAUUGGUGGAAUGACACAUUAAGAAGGUACAUGAGGAUCACCCAUGUGGGUAAACACG [Brourd's EX4 #23] (Eterna round: R97, puzzle: Brourd's mod of Exclusion 4)", -1),
    ("UAUAACCAAGGAUAUACAUGAGGAUCACCCAUGUAAUAUAAUAUAAUAUAAAUAAAAUGUAGAAGGUGGGAUAU (Eterna round: R97, puzzle: Exclusion 3)", -1),
    ("CAAUAGUGAGGAUAUCUGAUCACACCAUGAAGAAGGAGUGUAGAGAAGGCACAUGAGGAUCACCCAUGUCCCGU [Eternabot (L2) Solution 43] (Eterna round: R97, puzzle: Exclusion 4)", -1),
    ("AGUUGGCGAGGAUAUACAUGAGGAUCACCCAUGUGGUCCUGCGAUGGUGUCGCCCUUUGUAGAAGGCGCGGGUA [salish99_ex3_r4_055] (Eterna round: R97, puzzle: Exclusion 3)", -1),
]

Form field: apparent KD of MS2 coat protein at least 200 nM? Entry: ACCUCUUGAGGAUAUACAUGAGGAUCACCCAUGUUCCUUAAUAAAAUAGUUAUAUCGUGUAGAAGGUGGGAGGC [Eternabot (L2) Solution 42] (Eterna round: R97, puzzle: Exclusion 3) -1

Evaluate CCCACGUCAGGAUAUCUAAAGGUCCGAAAUAACGGGACUGCAGAGAAGGGACAUGAGGAUCACCCAUGUCCUCG [EX4 C.21] (Eterna round: R97, puzzle: Exclusion 4) : apparent KD of MS2 coat protein at minimum 200 nM? -1

Decide: apparent KD of MS2 coat protein of GUAACAUGCUGGUGAUCAUACAUGAGGAUCACCCAUGUAACAAGCUUUUUGCUCGUCUUAAUUUAAUUGAUUACUAG [Stov1/8-A2] (Eterna round: R97, puzzle: Sensor, turn-off variant 1) >= 200 nM? -1

Can GUUAACGCAGGAUAUUAGUACAUGUACAUGAGGAUCACCCAUGUUUAGUGGGUCUAGGAAUAAGAAGGGCGAUGAA [JR_Ex5_Sub007] (Eterna round: R97, puzzle: Exclusion 5) be said to have apparent KD of MS2 coat protein at or above 200 nM? 1

Does the sequence AUCGUGUGAGGAUAUCGAUGUUGGACGUCUAGGUCUGAGCGCGAGAAGGCACAUGAGGAUCACCCAUGUAAGGG [jl-ex4-4.24 ViennaUCT mod] (Eterna round: R97, puzzle: Exclusion 4) have recorded apparent KD of MS2 coat protein that is 200 nM or more? 1

Is apparent KD of MS2 coat protein at least 200 nM? Consider AUGAGCAGACGGAGAUCCAACAUGAGGAUCACCCAUGUCUCAUAAGCUUUUUGUUCAUCUUAUUGUACCUUGGUGCA [Mat - Sensor v3 - turn-off var 1 - JL Mod - D25] (Eterna round: R96, puzzle: Sensor v3, turn-off variant 1) 1

Given the entry CUAAAUCAUGUAGGAUAUGCGUGGCGAAGCUAUGCAGAAGGACAUGAGGAUCACCCAUGUCUUUCCGUCUGAGUACAGACGGGA [Mat - Exclusion NG 1 - Mod of JL - D45] (Eterna round: R96, puzzle: Exclusion NG 1) , answer whether its apparent KD of MS2 coat protein meets or surpasses 200 nM. -1

Check the entry AUUUUGUGAGGAUAUUAGAAGUAGAAAGUUGGUAGUAUUGCUGAGAAGGCACAUGAGGAUCACCCAUGUACAAC [JR_Ex4_Sub036] (Eterna round: R97, puzzle: Exclusion 4) : does apparent KD of MS2 coat protein equal or exceed 200 nM? -1

Assess whether reported apparent KD of MS2 coat protein for UGAUCAGACCGAGGAUAUAUAUGGAGGACCCACGUGAGUGGGUCCACUACAUGAGGAUCACCCAUGUAGAAGGCGGUCUGAUCU [JL ENG2 1.86] (Eterna round: R96, puzzle: Exclusion NG 2) sits at 200 nM or higher. -1

Evaluate CGAGCUAAUGUGAGGAUAUACCUAUGGAUACAUAGGUAGAAGGCACAUGAGGAUCACCCAUGUCCUAUAGCUCG [jl-bmx4-4.55] (Eterna round: R97, puzzle: Brourd's mod of Exclusion 4) : apparent KD of MS2 coat protein at minimum 200 nM? 1

Is it the case that AAACAAGCUCGGGUGAGGGAGACCACAGAAGGACCCAAAACAUGAGGAUCACCCAUGUCAAGAGUAGAGCUUGGCAU [high scoring solution 31] (Eterna round: R96, puzzle: Sensor v2, turn-off variant 2) has apparent KD of MS2 coat protein reaching or exceeding 200 nM? -1

State whether the measured apparent KD of MS2 coat protein reaches 200 nM, counting equality as reaching it, for UUUAAUCAUGUAGGAUAUGCGUGGCGAAGCUAUGCAGAAGGACAUGAGGAUCACCCAUGUUCUAGCGUCUGCGUACAGAUGCGG [13th something] (Eterna round: R96, puzzle: Exclusion NG 1) 1

Is the recorded value of apparent KD of MS2 coat protein equal to or greater than 200 nM for this sequence? AGAUUGAAUGAGGAUAUCGUUGCGGGUACGUAGCGAGAAGGCAUGACAUGAGGAUCACCCAUGUAGUGUGGGUU [JR_Ex6_Sub019] (Eterna round: R97, puzzle: Exclusion 6) 1

---

- Test system: MS2 coat protein
- RUN DESCRIPTION: apparent KD of MS2 coat protein; higher = weaker reporter binding
- COND: Eterna round: R107; input ligand: arginine 13.2 mM
# label = true if apparent KD of MS2 coat protein >= 50 nM else false

# ITEM SEQUENCE, CLASS ASSIGNMENT
rows = [
    ("GGGUAUGAUCCGGAUACCAGCGAACAUGAGGAUCACCCAUGUGACCUAAGAUAGGCUAAACGCCCUUGGCAGCCGAGAUUGCGUU [Same State Theophylline B GF7]", "false"),
]

Attention now turns to another entry.
Is reported apparent KD of MS2 coat protein greater than or equal to 50 nM here: GCAUCCUAGUCGGCCGCCACUGCAAUUGUAGUACUGCUACAUGAACAUGAGGAUCACCCAUGUAGCAGGACCGGGACUAGGAUGC [(Trp1)-(TM)''-(TM)'-(Ms2)-(Trp2)_Design10] false

---

- Tested on: MS2 coat protein
- RUN DESCRIPTION: apparent KD of MS2 coat protein; designed switch direction (-1 OFF switch, 1 ON switch): 1; higher = weaker reporter binding
- COND: Eterna round: R95; input ligand: FMN 200 uM
Please map values of apparent KD of MS2 coat protein to classes as shown: low group (below 0.02 µM), middle group (0.02 µM to below 0.08 µM), high group (0.08 µM or more)

# ITEM SEQUENCE, CLASS ASSIGNMENT
data = [
    ("UAAACUUCUUUUAGUGUGUUGCGAGUGAAACAUGAGGAUCACCCAUGUAAAGGAUUGUGGUAUUUUGUUCGUCUUAA [JR_SHM208A_Sub075] (puzzle: Sensor for hsa-mir-208a)", "middle group"),
    ("GGUGAGAGAGUCAAGGAUAUGAAAGGAGAGACAUGAGGAUCACCCAUGUAAGAGAGAGAGGAGAGUUAGAAGGUGAAGAGAGUGG [Altered State 2-24 - Jieux - Same State 2] (puzzle: Same State 2)", "middle group"),
]

Exam item: assign GGAGCCGGCACUGAGGAUAUUCGUAUUAAAACAUGAGGAUCACCCAUGUAGGCCAGAAGGCCUUGGGAGAAGGCAGGUCGGCCCG [Bibimoar - 5] (puzzle: Same State 2) to the correct category. low group

Assign a category based on measured apparent KD of MS2 coat protein for AUUAAACAUGAGGAUCACCCAUGUCAACAAAGUCGAGGAUAUGGGCAAAUAAAAUAAGAACCAGAAGGCGAAUAUU [salish99_ss1_r3_080] (puzzle: Same State 1) and give only the class name. middle group

Returns: class label. Input: ACAAGCUUUUCUGUAUUGAAAGGUGGGAUACAUGAGGAUCACCCAUGUUUUUUUGUUUAUUUUUUUCCUCGUCUUAU [JR_SHM208A_Sub088] (puzzle: Sensor for hsa-mir-208a) middle group

Lab note: sort GGUCCAGCCUGAGCUGGACAAAAGCAUGUACAUGAGGAUCACCCAUGUCAUGUACAAGCUUUUUGCUCGUCAUAAAU [Mat - hsa-mir-208a - 96] (puzzle: Sensor for hsa-mir-208a) into the matching apparent KD of MS2 coat protein band. high group
